Every entry's value here was drawn from the supplement of paper PMC13380429.

System: U2OS
Assay: cell viability relative to DMSO; higher = less toxic
Details: 72 h; 10 nM
ASSAY_METRIC: cell viability (%)
Report the value in % with no unit label.

Field cell viability (entry C=C(C)[C@@H]1CC[C@]2(CO)CC[C@]3(C)[C@H](CC[C@@H]4[C@@]5(C)CC[C@H](O)C(C)(C)[C@@H]5CC[C@]43C)[C@@H]12 [NSC-4644] ) reads 95.6

Query CC[C@@H]([C@H](C)O)n1ncn(-c2ccc(N3CCN(c4ccc(OC[C@@H]5CO[C@@](Cn6cncn6)(c6ccc(F)cc6F)C5)cc4)CC3)cc2)c1=O [posaconazole] yields cell viability of 101

Quick note, cell viability for CC(=O)N[C@H](Cc1ccc2ccccc2c1)C(=O)N[C@H](Cc1ccc(Cl)cc1)C(=O)N[C@H](Cc1cccnc1)C(=O)N[C@@H](CO)C(=O)N[C@@H](Cc1ccc(O)cc1)C(=O)N[C@H](CCCNC(N)=O)C(=O)N[C@@H](CC(C)C)C(=O)N[C@@H](CCCNC(=N)N)C(=O)N1CCC[C@H]1C(=O)N[C@H](C)C(N)=O [cetrorelix] landed at 93.6

For this compound ( O=C(Nc1cc(C(F)(F)F)cc(C(F)(F)F)c1)c1cnc(Cl)nc1C(F)(F)F ), measured cell viability is 100

The compound listed as COc1cc2nc(C3CC3)nc(N3CCN(c4ccccc4OC)CC3)c2cc1OC [ML314] shows cell viability equal to 97.4

cell viability reported for this compound CNC(=O)c1cc2c(cn1)[nH]c1ccccc12 [FG-7142] : 100

CC(=O)N1CCC(NC(=O)c2ccc(F)cc2)CC1 [FK-962] has a reported cell viability of 97.9

====

Would you mind telling me the reported cell viability of each entry?
Tested on: Vero E6
Experiment: cell viability relative to DMSO; higher = less toxic
Details: 72 h; 10 nM
# unit: % | format: bare number

So for N[C@H]1CC[C@H](N[C@@H]2C[C@H]2c2ccccc2)CC1 [ORY-1001] , the logged cell viability turned out to be 103

// sample CC(C)c1ccc(C(=O)N=C(N)N)cc1S(C)(=O)=O [cariporide] , its cell viability was 101

Documented cell viability of COc1cc2nc(C3CC3)nc(N3CCN(c4ccccc4OC)CC3)c2cc1OC [ML314] : 109

Reported cell viability of Cc1ccc(N2CCN(CC[C@H]3NC(=O)c4ccccc43)CC2)cc1C : 97.7

Sure, the documented cell viability for COc1cc([C@@H]2c3cc4c(cc3[C@@H](O[C@@H]3O[C@@H]5CO[C@@H](C)O[C@H]5[C@H](O)[C@H]3O)[C@H]3COC(=O)[C@H]23)OCO4)cc(OC)c1O [etoposide] is 105

cell viability for Cc1cncc(CN2CCC(=C3c4ccc(Cl)cc4CCc4cccnc43)CC2)c1 [rupatadine] is 102

cell viability measured on CCN(C(C)=O)c1cccc(-c2ccnc3c(C#N)cnn23)c1 [ZALEPLON] = 99.2

Kindly note the recorded cell viability for CCCC[C@H]1C(=O)N(c2ccccc2)N(c2ccc(O)cc2)C1=O [oxyphenbutazone] , which is 107

For record Nc1nc(N)nc(NC2CC2)n1 [cyromazine] the listed cell viability is 98.2

Entry Cn1cc(-c2ccc(F)c(C(F)(F)F)c2)nc1C1CCN(c2ncnc3[nH]ncc23)CC1 , cell viability reported as 106

The value of cell viability measured for the compound N[C@@H](CSC(c1ccccc1)(c1ccccc1)c1ccccc1)C(=O)O [S-trityl-L-cysteine] turned out to be 100

The compound listed as O=C(Nc1ccc(N2CCC(C(=O)N3CCOCC3)CC2)cc1)c1cnc(Oc2ccccc2)nc1 [TFC-007] has a reported cell viability of 101

Looking up O=C(O)[C@@H](S)[C@@H](S)C(=O)O [dimercaptosuccinic-acid] , I see its cell viability listed as 102

// cell viability value for CCCC(=O)O [sodium-butyrate] : 101

Briefly, cell viability measured for O=C(NCC(=O)N1CC[C@H](N[C@H]2CC[C@@](O)(c3ccc(-c4ncccn4)cn3)CC2)C1)c1cccc(C(F)(F)F)c1 : 102

Note to self: cell viability recorded for O=C1NCN(c2ccccc2)C12CCN(CCCC(c1ccc(F)cc1)c1ccc(F)cc1)CC2 [fluspirilene] was 98.1

Recorded cell viability (compound [N-]=[N+]=CC(=O)CC[C@H](N)C(=O)O [6-diazo-5-oxo-L-norleucine] ): 95.8

Kindly note the recorded cell viability for C[C@@H]1C[C@H]2[C@@H]3C[C@H](F)C4=CC(=O)C=C[C@]4(C)[C@@]3(F)[C@@H](O)C[C@]2(C)[C@@]1(O)C(=O)CO [flumethasone] , which is 105
